# target under test: H1R (Cavia porcellus)
# Construct: from tissue; host or cells: isolated distal ileum of male guinea pigs
# Sequence (P31389 whole entry): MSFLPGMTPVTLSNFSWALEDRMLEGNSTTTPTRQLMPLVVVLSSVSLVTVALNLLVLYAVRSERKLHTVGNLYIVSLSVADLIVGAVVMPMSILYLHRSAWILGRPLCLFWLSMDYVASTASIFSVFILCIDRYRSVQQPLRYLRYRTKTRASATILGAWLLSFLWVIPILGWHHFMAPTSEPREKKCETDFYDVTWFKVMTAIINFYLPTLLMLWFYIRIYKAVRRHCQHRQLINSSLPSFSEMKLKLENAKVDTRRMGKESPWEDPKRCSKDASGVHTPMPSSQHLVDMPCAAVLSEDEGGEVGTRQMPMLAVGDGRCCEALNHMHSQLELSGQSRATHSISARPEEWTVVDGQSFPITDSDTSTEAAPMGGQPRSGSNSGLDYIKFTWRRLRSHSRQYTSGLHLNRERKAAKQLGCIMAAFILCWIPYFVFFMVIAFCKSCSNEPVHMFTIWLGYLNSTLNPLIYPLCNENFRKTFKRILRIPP
# run description: Ex vivo screening of histamine H1R antagonists on guinea pig ileum, variant without atropine
# assay context: isolated guinea pig ileum, histamine as agonist, read-out: H1R pA2 gpi ± sem (converted)
Kindly supply the reported Kb values for the records listed here.
Dear colleague, please return just the value in nM, with no unit written.

Reported Kb for N=C(N)N(CCCCN1CCN(Cc2ccc(COc3ccccc3)cc2)CC1)Cc1ccc(C(F)(F)F)cc1 [ADS10183] : what is it?
182

Reported Kb for [H]/N=C(\N)N(CCCCN1CCN(CC2CCC(COc3ccccc3)CC2)CC1)Cc1ccc(C(F)(F)F)cc1 (stereo not drawn) [ADS10207] : what is it?
75.9

Reported Kb for N=C(N)N(CCCCN1CCN(Cc2ccc(Oc3ccccc3)cc2)CC1)Cc1ccc(C(F)(F)F)cc1 [ADS10210] : what is it?
60.3
